molecular target: SfurOBP11 (Sogatella furcifera); experiment: biochemical; format: binding; settings: ligand concentration 12, replicate 2
Sequence (V5T6E3 entry or part of it): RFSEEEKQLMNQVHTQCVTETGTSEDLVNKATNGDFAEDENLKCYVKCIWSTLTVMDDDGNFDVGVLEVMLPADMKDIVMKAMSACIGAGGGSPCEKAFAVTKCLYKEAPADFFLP
Kindly supply the reported Fluorescence intensity, fluorescence competitive binding assay, OBP11 values for the records listed here.
Give bare numbers.

Example entries and their recorded answers appear below.
molecule	readoutValue
CCCCCCCCCCCCCC [n-tetradecane]	30637
c1ccc2ccccc2c1 [naphthalene]	28382
CC/C=C\CCO [(Z)-3-hexenol]	20348
CCCCCCCCCCCCCCCCCCC [n-nonadecane]	35339
CCCCCCCCCCCCCCCCCC [n-octadecane]	32241
CCCCCCCCCCOCCCCCCCCCC [didecyl ether]	60637

Go through the list and state Fluorescence intensity, fluorescence competitive binding assay, OBP11 for each entry.
1. CC(C)COC(=O)CCCCC(=O)OCC(C)C [DA(diisobutyl adipate)]
2. CCCCCCCCCCCCCCCC [n-hexadecane]

[A]
1: 21796; 2: 19980
